- test target: human MC3R (human, UniProt P41968 1-323)
- Sequence (P41968 whole entry): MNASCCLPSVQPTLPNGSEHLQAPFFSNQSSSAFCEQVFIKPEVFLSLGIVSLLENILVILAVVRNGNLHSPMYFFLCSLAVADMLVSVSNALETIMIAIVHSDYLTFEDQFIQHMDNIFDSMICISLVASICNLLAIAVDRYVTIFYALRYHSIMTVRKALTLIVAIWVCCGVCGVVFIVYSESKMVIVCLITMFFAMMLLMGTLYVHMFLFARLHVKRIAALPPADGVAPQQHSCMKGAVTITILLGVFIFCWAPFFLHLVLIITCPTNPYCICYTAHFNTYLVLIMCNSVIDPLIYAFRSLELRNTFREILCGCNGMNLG
- test: cell-based or functional assay
Non-standard residues stand in square brackets, D forms with d. Phe(4-I) = N[C@@H](Cc1ccc(I)cc1)C(=O)O; Nle = CCCC[C@H](N)C(=O)O
measurement name: MC3R selectivity (relative to MC4R)
Reply: number alone, nothing else.

## Task Reported MC3R selectivity (relative to MC4R), binder Ac-[Nle][dA]HFR[dW]DR[dF]K-OH (SMILES CCCC[C@H](NC(C)=O)C(=O)N[C@H](C)C(=O)N[C@@H](Cc1c[nH]cn1)C(=O)N[C@@H](Cc1ccccc1)C(=O)N[C@@H](CCCNC(=N)N)C(=O)N[C@H](Cc1c[nH]c2ccccc12)C(=O)N[C@@H](CC(=O)O)C(=O)N[C@@H](CCCNC(=N)N)C(=O)N[C@H](Cc1ccccc1)C(=O)N[C@@H](CCCCN)C(=O)O) [CTX-1160] : ____
## Result 1260

## Task Reported MC3R selectivity (relative to MC4R), binder YVXAHFRWDRFG (D-Tyr at 1; Nle at 3; D-Ala at 4; D-Trp at 8) [CTX-1125] : ____
## Result 747

## Task Reported MC3R selectivity (relative to MC4R), binder Ac-[Nle][dA]H[Phe(4-I)]R[dW]G-NH2 (SMILES CCCC[C@H](NC(C)=O)C(=O)N[C@H](C)C(=O)N[C@@H](Cc1c[nH]cn1)C(=O)N[C@@H](Cc1ccc(I)cc1)C(=O)N[C@@H](CCCNC(=N)N)C(=O)N[C@H](Cc1c[nH]c2ccccc12)C(=O)NCC(N)=O) [CTX-1543] : ____
## Result 202

## Task Reported MC3R selectivity (relative to MC4R), binder H-YV[Nle][dA]HFR[dW]D-NH2 (SMILES CCCC[C@H](NC(=O)[C@@H](NC(=O)[C@@H](N)Cc1ccc(O)cc1)C(C)C)C(=O)N[C@H](C)C(=O)N[C@@H](Cc1c[nH]cn1)C(=O)N[C@@H](Cc1ccccc1)C(=O)N[C@@H](CCCNC(=N)N)C(=O)N[C@H](Cc1c[nH]c2ccccc12)C(=O)N[C@@H](CC(=O)O)C(N)=O) [CTX-1108] : ____
## Result 79
